The measurements presented in this section are drawn from PubChem BioAssay.

Provide the recorded z-score for the entries that follow.
- assayText: JC-1 mitochondrial signal, unstimulated HepG2 cells – cell-based, JC-1 fluorescence, 24 h, 100 nL compound, profiling panel (AID 1167); note: test concentration not given here
- measurementConditions: HepG2 mitochondrial potential, higher = more signal

Examples with answers:
INSERT INTO measurements (molecule, reportedresult) VALUES
  ('C[C@H]1O[C@H]2C3=C(C(=O)[C@@H]4O[C@@H]4[C@@H]3O)[C@@H]1[C@@H]1[C@@H](C)OC=C3[C@@H](O)[C@H]4O[C@H]4C(=O)[C@]312', -0.407),
  ('COC(=O)[C@H]1C(=O)c2ccccc2O[C@@](C(=O)OC)(c2ccccc2)[C@@H]1c1ccccc1', -0.598),
  ('CN1CCc2nc(CO)c(CO)cc2C1', 0.302);

Each molecule below has a reported value. Please supply its z-score.
1. CCCc1cc2c(n1Cc1cccc(Cl)c1)C(C)C1CN(C(=O)c3ccccc3)C(C)(C(=O)OC)C21 (stereo not given)
2. C[C@@H]1Cc2c(cnc3c2CN(C)CC3)CO1

1. 1.4
2. 0.389
